target-under-test: T1, C57BL/6 mouse SIRP-α D1 domain (mouse (C57BL/6 strain), UniProt P97797 32-148)
T1 sequence: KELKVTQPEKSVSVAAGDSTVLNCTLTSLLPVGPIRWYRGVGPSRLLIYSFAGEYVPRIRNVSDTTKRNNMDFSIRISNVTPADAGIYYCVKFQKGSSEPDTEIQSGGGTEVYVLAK
protocol-summary: SPR, ProteOn, antibody on chip
Checkbox rule: koff lower than 0.001 s⁻¹ = Condition met; koff not lower than 0.001 s⁻¹ = Condition not met.

>  <binder>
AB27c (antibody, mouse IgG2a, V domains shown, Full-length mouse IgG2a) VH: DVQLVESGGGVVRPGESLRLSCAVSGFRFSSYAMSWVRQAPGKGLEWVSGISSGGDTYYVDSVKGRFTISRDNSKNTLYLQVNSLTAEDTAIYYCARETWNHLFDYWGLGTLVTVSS VL: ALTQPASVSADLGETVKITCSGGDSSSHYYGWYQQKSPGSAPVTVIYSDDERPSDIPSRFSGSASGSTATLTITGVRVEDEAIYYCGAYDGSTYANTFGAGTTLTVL

>  <classification>
Condition not met

$$$$
>  <binder>
AB21c (antibody, mouse IgG2a, V domains shown, Full-length mouse IgG2a) VH: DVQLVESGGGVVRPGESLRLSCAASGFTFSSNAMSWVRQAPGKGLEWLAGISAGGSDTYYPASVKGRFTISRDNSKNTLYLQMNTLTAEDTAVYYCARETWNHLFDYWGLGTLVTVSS VL: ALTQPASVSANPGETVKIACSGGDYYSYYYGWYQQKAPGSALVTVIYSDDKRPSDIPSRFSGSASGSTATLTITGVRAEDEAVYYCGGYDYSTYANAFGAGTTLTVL

>  <classification>
Condition met

$$$$
>  <binder>
AB3c (antibody, mouse IgG2a, V domains shown, Full-length mouse IgG2a) VH: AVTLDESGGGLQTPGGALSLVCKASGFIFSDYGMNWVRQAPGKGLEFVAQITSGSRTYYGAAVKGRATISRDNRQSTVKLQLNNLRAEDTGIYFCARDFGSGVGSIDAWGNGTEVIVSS VL: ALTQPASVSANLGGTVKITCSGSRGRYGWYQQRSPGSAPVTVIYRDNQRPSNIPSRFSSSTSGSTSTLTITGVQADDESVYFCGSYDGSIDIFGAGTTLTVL

>  <classification>
Condition not met

$$$$
>  <binder>
AB25c (antibody, mouse IgG2a, V domains shown, Full-length mouse IgG2a) VH: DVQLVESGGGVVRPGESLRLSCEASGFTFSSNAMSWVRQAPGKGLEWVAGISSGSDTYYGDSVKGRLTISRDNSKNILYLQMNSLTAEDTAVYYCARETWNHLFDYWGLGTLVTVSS VL: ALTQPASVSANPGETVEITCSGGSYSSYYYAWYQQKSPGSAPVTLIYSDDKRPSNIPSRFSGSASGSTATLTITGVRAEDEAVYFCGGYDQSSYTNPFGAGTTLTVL

>  <classification>
Condition met

$$$$
>  <binder>
AB66c (antibody, mouse IgG2a, V domains shown, Full-length mouse IgG2a) VH: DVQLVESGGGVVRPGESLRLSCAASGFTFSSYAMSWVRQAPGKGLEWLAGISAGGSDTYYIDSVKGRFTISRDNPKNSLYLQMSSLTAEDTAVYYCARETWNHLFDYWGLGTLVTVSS VL: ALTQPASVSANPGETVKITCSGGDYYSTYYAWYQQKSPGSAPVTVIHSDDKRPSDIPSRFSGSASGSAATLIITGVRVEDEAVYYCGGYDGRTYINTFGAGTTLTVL

>  <classification>
Condition met

$$$$

Reference source: patent US20210363269A1
